Tested on: Escherichia coli (MC4100)
method: MIC determination by two-fold serial dilution in 96-well microtiter plates
Assay type: cell-based
condition-parameters: Escherichia coli; Table 1; 37° C., 72 hours; read-out: MIC, Gram negative E. coli
result-type: MIC
The reply should read as a number followed by its unit.

Field: example entries. Status: answers known.
INSERT INTO assay_data (molecule, val) VALUES
  ('CCCCCCCCCCCCCC[N+](C)(C)CCN(C)C [(14, 2, 0)]', '16 µM'),
  ('CCCCCCCCCC[N+](C)(C)CCN(C)C [(10, 2, 0)]', '250 µM'),
  ('CCCCCCCCCCCC[N+](C)(C)CCN(C)C [(12, 2, 0)]', '63 µM'),
  ('CCCCCCCCCCCCCCCCCC[N+](C)(C)CCN(C)C [(18, 2, 0)]', '63 µM'),
  ('CCCCCCCCCCCCCCCC[N+](C)(C)CCN(C)C [(16, 2, 0)]', '16 µM');

What the record says about CCCCCCCCCCCCCCCCCCCC[N+](C)(C)CCN(C)C [(20, 2, 0)] : MIC is 63 µM
